Biological target: BACE1 (β-site APP-cleaving enzyme 1) (Homo sapiens, UniProt P56817)
Construct: human recombinant BACE1, baculovirus-expressed
Sequence (P56817 46-457): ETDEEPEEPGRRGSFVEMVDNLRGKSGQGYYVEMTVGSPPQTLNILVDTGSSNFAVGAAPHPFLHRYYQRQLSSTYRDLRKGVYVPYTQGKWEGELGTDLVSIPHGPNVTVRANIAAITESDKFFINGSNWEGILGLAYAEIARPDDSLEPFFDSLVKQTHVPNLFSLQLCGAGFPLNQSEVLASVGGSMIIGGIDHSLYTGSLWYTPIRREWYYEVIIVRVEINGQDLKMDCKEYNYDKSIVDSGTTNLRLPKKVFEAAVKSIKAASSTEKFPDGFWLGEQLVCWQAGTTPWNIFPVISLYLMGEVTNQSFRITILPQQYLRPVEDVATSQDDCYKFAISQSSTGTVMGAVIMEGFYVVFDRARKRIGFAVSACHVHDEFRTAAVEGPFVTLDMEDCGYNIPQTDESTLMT
Assay: FRET enzyme assay with recombinant BACE1; Dixon and Lineweaver-Burk kinetics (Ki […])
Assay type: biochemical
Reported Endpoint: IC50 (µM)
Quick reminder: number only, in µM, skip the unit.

// lookup IC50 for COc1ccc(-c2coc3cc(O)cc(O)c3c2=O)cc1 [Biochanin A]
28

Reference source: paper PMC5084024
